Test system: ISH467-N2C0 recombinant β-galactoside-α2,3-sialyltransferase
Experiment: Acceptor substrate specificity of recombinant β-galactoside-α2,3-sialyltransferase (mono-, di-, trisaccharides)
Type: biochemical, Photobacterium phosphoreum
Details: Table 16: activity toward lactose set to 100; 20° C., 14 hours
measured.attribute: ISH467-N2C0 Sialyltransferase activity Relative activity (%)
Output spec: scalar in %, unitless text.

### Prompt Input CC(=O)N[C@H]1C(O)O[C@H](CO)[C@@H](O)[C@@H]1O (stereo partly drawn) , output reported ISH467-N2C0 Sialyltransferase activity Relative activity (%).
### Response 63

### Prompt Let me know recorded ISH467-N2C0 Sialyltransferase activity Relative activity (%) for CO[C@H]1O[C@H](CO)[C@H](O)[C@H](O)[C@H]1O [Methylαgalactopyranoside, methyl-α-D-galactopyranoside] , thanks.
### Response 134

### Prompt Please look at this compound and report its ISH467-N2C0 Sialyltransferase activity Relative activity (%): OC[C@H]1O[C@@H](O[C@H]2[C@H](O)[C@@H](O)C(O)O[C@@H]2CO)[C@H](O)[C@@H](O)[C@H]1O (stereo partly drawn)
### Response 100

### Prompt // Input: CC(=O)N[C@H]1C(O)O[C@H](CO)[C@@H](O[C@@H]2O[C@H](CO)[C@H](O)[C@H](O)[C@H]2O)[C@@H]1O (stereo partly drawn) . Output its ISH467-N2C0 Sialyltransferase activity Relative activity (%) only.
### Response 118

### Prompt Name the recorded ISH467-N2C0 Sialyltransferase activity Relative activity (%) of the item CO[C@H]1O[C@H](CO)[C@@H](O)[C@H](O)[C@H]1O [Methylαglucopyranoside, methyl-α-D-glucopyranoside] in your answer.
### Response 79

### Prompt Return value of ISH467-N2C0 Sialyltransferase activity Relative activity (%) for input `CO[C@@H]1O[C@H](CO)[C@@H](O)[C@H](O[C@@H]2O[C@H](CO)[C@H](O)[C@H](O)[C@H]2O)[C@H]1NC(C)=O` , no commentary.
### Response 122

====

Tested on: ISH224-N1C0 recombinant β-galactoside-α2,3-sialyltransferase
Experiment: Acceptor substrate specificity of recombinant β-galactoside-α2,3-sialyltransferase (mono-, di-, trisaccharides)
Assay type: biochemical, Photobacterium sp.
Settings: Table 17: 1 μmol acceptor, pH 5.0, 1.0 mU per reaction, 30° C., 0.5 minutes or 2 minutes
Would you kindly list ISH224-N1C0 Sialyltransferase activity for each of these molecules?
Just the number please, in nmol/min, no unit attached.

### Prompt Dear colleague, please send me the reported ISH224-N1C0 Sialyltransferase activity for CO[C@H]1O[C@H](C)[C@H](O)[C@H](O)[C@H]1O [Methylαfucopyranoside, methyl-α-D-fucopyranoside] when you can.
### Response 0.70

### Prompt Specify ISH224-N1C0 Sialyltransferase activity for OC[C@H]1O[C@@H](O[C@H]2[C@H](O)[C@@H](O)C(O)O[C@@H]2CO)[C@H](O)[C@@H](O)[C@H]1O (stereo partly shown) and stop.
### Response 1.03

### Prompt Kindly indicate its recorded ISH224-N1C0 Sialyltransferase activity. Item: CC(=O)N[C@H]1C(O)O[C@H](CO)[C@@H](O)[C@@H]1O (stereo partly shown)
### Response 0.51

### Prompt Provide ISH224-N1C0 Sialyltransferase activity value for the following molecule: CC(=O)N[C@H]1C(O)O[C@H](CO)[C@H](O)[C@@H]1O (stereo partly shown)
### Response 0.78

### Prompt Name the recorded ISH224-N1C0 Sialyltransferase activity of the molecule listed here: CC(=O)N[C@H]1C(O)O[C@H](CO)[C@@H](O[C@@H]2O[C@H](CO)[C@H](O)[C@H](O)[C@H]2O)[C@@H]1O (stereo partly shown)
### Response 0.99

### Prompt For `CO[C@@H]1O[C@H](CO)[C@@H](O)[C@H](O[C@@H]2O[C@H](CO)[C@H](O)[C@H](O)[C@H]2O)[C@H]1NC(C)=O` , write its ISH224-N1C0 Sialyltransferase activity.
### Response 1.98

### Prompt Quick one: give measured ISH224-N1C0 Sialyltransferase activity for CO[C@H]1O[C@H](CO)[C@@H](O)[C@H](O)[C@H]1O [Methylαglucopyranoside, methyl-α-D-glucopyranoside]
### Response 0.70

### Prompt Identify measured ISH224-N1C0 Sialyltransferase activity corresponding to CO[C@H]1O[C@H](CO)[C@H](O)[C@H](O)[C@H]1O [Methylαgalactopyranoside, methyl-α-D-galactopyranoside]
### Response 8.49

### Prompt State its ISH224-N1C0 Sialyltransferase activity: CO[C@@H]1O[C@H](CO)[C@@H](O)[C@H](O)[C@@H]1O [Methylβmannopyranoside, methyl-β-D-mannopyranoside]
### Response 1.03

### Prompt Provide only the value of recorded ISH224-N1C0 Sialyltransferase activity for CO[C@@H]1O[C@H](CO)[C@H](O)[C@H](O)[C@H]1O [Methylβgalactopyranoside, methyl-β-D-galactopyranoside]
### Response 3.54

### Prompt Give ISH224-N1C0 Sialyltransferase activity for the following molecule: CO[C@@H]1O[C@H](C)[C@H](O)[C@H](O)[C@H]1O [Methylβfucopyranoside, methyl-β-D-fucopyranoside]
### Response 0.50

### Prompt Provide ISH224-N1C0 Sialyltransferase activity value for the following molecule: CO[C@H]1O[C@H](CO)[C@@H](O)[C@H](O)[C@@H]1O [Methylαmannopyranoside, methyl-α-D-mannopyranoside]
### Response 1.11

### Prompt Please report ISH224-N1C0 Sialyltransferase activity for the following molecule: CO[C@@H]1O[C@H](CO)[C@@H](O)[C@H](O)[C@H]1O [Methylβglucopyranoside, methyl-β-D-glucopyranoside]
### Response 0.27

====

Tested on: ISH467-N2C0 recombinant β-galactoside-α2,3-sialyltransferase
Assay: Acceptor substrate specificity of recombinant β-galactoside-α2,3-sialyltransferase (mono-, di-, trisaccharides)
Assay type: biochemical, Photobacterium phosphoreum
Conditions: Table 17: activity toward lactose set to 100; 30° C., 0.5 minutes or 2 minutes
measured.attribute: ISH467-N2C0 Sialyltransferase activity Relative activity (%)
Reply with just the number (in %).

### Prompt Item CC(=O)N[C@H]1C(O)O[C@H](CO)[C@@H](O)[C@@H]1O (stereo partly drawn) : provide ISH467-N2C0 Sialyltransferase activity Relative activity (%)
### Response 40

### Prompt Answer with reported ISH467-N2C0 Sialyltransferase activity Relative activity (%) of CC(=O)N[C@H]1C(O)O[C@H](CO)[C@@H](O[C@@H]2O[C@H](CO)[C@H](O)[C@H](O)[C@H]2O)[C@@H]1O (stereo partly drawn)
### Response 103

### Prompt Assign ISH467-N2C0 Sialyltransferase activity Relative activity (%) to the following record: CO[C@H]1O[C@H](CO)[C@H](O)[C@H](O)[C@H]1O [Methylαgalactopyranoside, methyl-α-D-galactopyranoside]
### Response 452

====

System: FAJ-N1C0 recombinant β-galactoside-α2,3-sialyltransferase
Test: Acceptor substrate specificity of recombinant β-galactoside-α2,3-sialyltransferase (mono-, disaccharides)
Assay type: biochemical, Vibrio sp.
Details: Table 16: 1 μmol acceptor, pH 5.0, about 2.5 mU enzyme, 20° C., 14 hours
measured.attribute: FAJ-N1C0 Sialyltransferase activity (nmol/min)
Give just the numeric value; nmol/min need not be written.

### Prompt Query FAJ-N1C0 Sialyltransferase activity for CO[C@@H]1O[C@H](CO)[C@@H](O)[C@H](O)[C@H]1O [Methylβglucopyranoside, methyl-β-D-glucopyranoside]
### Response 4.0

### Prompt Supply measured FAJ-N1C0 Sialyltransferase activity of CC(=O)N[C@H]1C(O)O[C@H](CO)[C@@H](O)[C@@H]1O (stereo partly shown) in your reply.
### Response 4.2

### Prompt Let me know recorded FAJ-N1C0 Sialyltransferase activity for CC(=O)N[C@H]1C(O)O[C@H](CO)[C@H](O)[C@@H]1O (stereo partly shown) , thanks.
### Response 4.4

### Prompt Return FAJ-N1C0 Sialyltransferase activity for the following compound: CO[C@H]1O[C@H](CO)[C@@H](O)[C@H](O)[C@H]1O [Methylαglucopyranoside, methyl-α-D-glucopyranoside]
### Response 4.7

### Prompt // Input: CO[C@H]1O[C@H](CO)[C@H](O)[C@H](O)[C@H]1O [Methylαgalactopyranoside, methyl-α-D-galactopyranoside] . Output its FAJ-N1C0 Sialyltransferase activity only.
### Response 10.3

### Prompt Given the compound CO[C@H]1O[C@H](CO)[C@@H](O)[C@H](O)[C@@H]1O [Methylαmannopyranoside, methyl-α-D-mannopyranoside] , write its reported FAJ-N1C0 Sialyltransferase activity.
### Response 4.3

### Prompt Assign FAJ-N1C0 Sialyltransferase activity to the following record: CO[C@@H]1O[C@H](CO)[C@H](O)[C@H](O)[C@H]1O [Methylβgalactopyranoside, methyl-β-D-galactopyranoside]
### Response 8.7

### Prompt Output measured FAJ-N1C0 Sialyltransferase activity for this item: `CO[C@@H]1O[C@H](CO)[C@@H](O)[C@H](O[C@@H]2O[C@H](CO)[C@H](O)[C@H](O)[C@H]2O)[C@H]1NC(C)=O`
### Response 9.4

### Prompt Identify measured FAJ-N1C0 Sialyltransferase activity corresponding to OC[C@H]1O[C@@H](O[C@H]2[C@H](O)[C@@H](O)C(O)O[C@@H]2CO)[C@H](O)[C@@H](O)[C@H]1O (stereo partly shown)
### Response 7.6

### Prompt Item CC(=O)N[C@H]1C(O)O[C@H](CO)[C@@H](O[C@@H]2O[C@H](CO)[C@H](O)[C@H](O)[C@H]2O)[C@@H]1O (stereo partly shown) : provide FAJ-N1C0 Sialyltransferase activity
### Response 9.6
